Provenance of the data: patent US10532985B2

Attribute: pIC50
- test_target: human TrkA (Homo sapiens, UniProt P04629)
- Construct: purchased Lifetechnologies PV3144
- Sequence (P04629 33-796): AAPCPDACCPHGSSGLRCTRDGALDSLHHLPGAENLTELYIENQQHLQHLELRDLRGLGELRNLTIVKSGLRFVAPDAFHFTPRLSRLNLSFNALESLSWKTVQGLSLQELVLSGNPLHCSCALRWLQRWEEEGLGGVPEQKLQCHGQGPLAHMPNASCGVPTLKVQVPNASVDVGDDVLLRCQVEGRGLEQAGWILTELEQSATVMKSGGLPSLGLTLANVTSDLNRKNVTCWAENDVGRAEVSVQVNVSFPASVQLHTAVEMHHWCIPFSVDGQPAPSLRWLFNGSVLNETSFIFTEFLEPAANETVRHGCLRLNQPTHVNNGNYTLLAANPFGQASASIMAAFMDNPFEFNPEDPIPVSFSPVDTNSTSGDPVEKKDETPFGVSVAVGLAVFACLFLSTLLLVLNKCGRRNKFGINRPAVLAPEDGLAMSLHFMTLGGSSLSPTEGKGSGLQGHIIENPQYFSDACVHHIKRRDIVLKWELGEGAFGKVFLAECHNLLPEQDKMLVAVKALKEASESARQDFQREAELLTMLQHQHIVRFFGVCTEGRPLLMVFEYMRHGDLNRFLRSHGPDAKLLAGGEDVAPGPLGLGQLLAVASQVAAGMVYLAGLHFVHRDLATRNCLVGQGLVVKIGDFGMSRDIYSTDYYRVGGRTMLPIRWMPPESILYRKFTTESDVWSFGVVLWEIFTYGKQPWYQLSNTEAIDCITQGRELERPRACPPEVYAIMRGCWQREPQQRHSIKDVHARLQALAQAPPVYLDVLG
- experiment_notes: Test Example 2: Human TrkA Inhibition Assay
- Type: biochemical
- experimental_context: human TrkA inhibition, Test Example 2; class symbols A/B/C; read-out: IC50_nM
pIC50: −log10 of the molar value.

Take a look at these entries with their results.
compound | pIC50
COCCN1C[C@@H](NC(=O)Nc2c(C)c(-c3cnn(C)c3)nn2-c2ccccc2)[C@H](c2ccc(C(=O)O)cc2)C1 (racemic) [Compound I-83] | < 6.00
Cc1c(-c2cnn(C)c2)nn(-c2ccccc2)c1NC(=O)N[C@@H]1CN(C2COC(=O)C2)C[C@H]1c1ccc(F)c(F)c1 (stereo partly drawn) [Compound I-152] | < 6.00

Query: Which pIC50 value belongs to CNC(=O)C(COC)N1C[C@@H](NC(=O)Nc2c(C)c(-c3cnn(C)c3)nn2-c2ccccc2)[C@H](c2ccc(F)c(F)c2)C1 (stereo partly drawn) [Compound I-137] ?
Result: 6.00 to 7.00

Query: Dear colleague, I am looking for the recorded pIC50 of the following compound: COCCN1C[C@@H](NC(=O)Nc2c(C)c(-c3cnn(C)c3)nn2-c2ccccc2)[C@H](c2ccc3c(c2)NC(=O)CO3)C1 (racemic) [Compound I-136]
Result: 6.00 to 7.00

Query: What does the data say about its pIC50? Entry: COCCN1C[C@@H](NC(=O)Nc2c(C)c(-c3cnn(C)c3)nn2-c2ccccc2)[C@H](c2cccc3c2OCO3)C1 (racemic) [Compound I-75]
Result: 6.00 to 7.00

Query: What measured pIC50 goes with COCCN1C[C@@H](NC(=O)Nc2c(C)c(-c3cnn(C)c3)nn2-c2ccccc2)[C@H](c2ccc3nccn3c2)C1 (racemic) [Compound I-165] ?
Result: < 6.00
